# assayed.target: L-lactate dehydrogenase (Plasmodium falciparum (isolate CDC / Honduras)) (UniProt Q27743)
# Sequence (Q27743 whole entry, looked up): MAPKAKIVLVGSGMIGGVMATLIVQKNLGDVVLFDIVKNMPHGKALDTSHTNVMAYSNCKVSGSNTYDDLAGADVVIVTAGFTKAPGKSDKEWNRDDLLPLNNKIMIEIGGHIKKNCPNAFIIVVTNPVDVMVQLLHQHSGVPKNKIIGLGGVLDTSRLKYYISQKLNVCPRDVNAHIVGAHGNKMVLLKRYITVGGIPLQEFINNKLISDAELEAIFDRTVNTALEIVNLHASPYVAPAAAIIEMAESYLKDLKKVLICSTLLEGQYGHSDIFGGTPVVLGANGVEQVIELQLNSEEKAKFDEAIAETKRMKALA
# experimental.details: PfLDH activity inhibition – cell lysate, 3D7 strain, counter-screen for P. falciparum growth inhibition project (AID 2304);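 further: 0% = vehicle and 100% = reference inhibitor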
# test.conditions: P. falciparum 3D7 crude extract, LDH APAD/NBT absorbance; at 2 µM; hits give high values
Recorded inhibition for the following molecules
assay.metric: inhibition (%)

> print(dat)
                                   molecule  test.result
1  CC(C)(C)c1ccc(CN2CCCCC(NC(=O)c3cc(-c4cccc(F)c4)cs3)C2)cc1 (stereo not drawn)           -3
2  CCCCNCCOc1ccc(-c2nc(-c3ccccc3)c(-c3ccccc3)[nH]2)cc1           -5
3  Cc1cccc(C(=O)Nc2ccnc(N(C)CCCN(C)Cc3cccc(C#N)c3)c2)c1           -2
4  COc1ccc(O)c(-c2sc(N=C(N)N)nc2-c2ccccc2)c1           -2
5  CN1CCCN(Cc2cccc(-c3cccc(NS(=O)(=O)c4cccc5cccnc45)c3)c2)CC1           -6
6  O=C(Nc1cc(Cl)cc(Cl)c1)c1cnn(-c2ccc(F)cc2)c1C1CCNCC1           -2
7  Cc1[nH]c(C)c(-c2ccc(Oc3cccc(C(F)(F)F)c3)cc2)c(=O)c1Br            4
8  CN(C)CCNCc1nc(-c2ccc3c(Nc4ccc(Oc5ccccc5)cc4)ccnc3c2)cs1            6
